Documented bioavailability across a set of molecules
test: Oral bioavailability in dog at 1.0 mg/kg; type: ADME, organism-based, Canis lupus familiaris; settings: in vivo

{"structure-smiles-string": "Nc1ccc(-c2cccs2)cc1NC(=O)c1ccc(N2CCC3(CCNC3)CC2)nc1", "bioavailability": "100%"}
{"structure-smiles-string": "Nc1ccc(-c2cccs2)cc1NC(=O)c1ccc(N2CCC3(CC2)COC(=O)N3)nc1", "bioavailability": "18%"}

---

test: Distribution coefficient, log D of the compound; assay type: physicochemical; settings: octanol/water
property-name: logD

{"structure-smiles-string": "Nc1ccc(-c2cccs2)cc1NC(=O)c1ccc(N2CCC3(CCNC3)CC2)nc1", "data-value": 1.45}

---

test: Solubility of the compound; format: physicochemical

{"structure-smiles-string": "Nc1ccc(-c2cccs2)cc1NC(=O)c1ccc(N2CCC3(CCNC3)CC2)nc1", "unit-of-measurement": "µM", "solubility": 186}

---

experiment: Plasma concentration in human HCT116 cells xenografted CD1 mouse at 15 mg/kg, ip after 48 hrs; type: ADME, organism-based, HCT-116; parameters: dose 15 mg/kg, route intraperitoneal

{"structure-smiles-string": "Nc1ccc(-c2cccs2)cc1NC(=O)c1ccc(N2CCC3(CCNC3)CC2)nc1", "unit-of-measurement": "nM", "concentration at 48 h": 50}

---

test system: Canis familiaris; assay: Plasma concentration in CV dog at 10 mg/kg, iv; format: ADME, organism-based, Canis lupus familiaris; parameters: dose 10 mg/kg, route intravenous; details: in vivo

{"structure-smiles-string": "Nc1ccc(-c2cccs2)cc1NC(=O)c1ccc(N2CCC3(CCNC3)CC2)nc1", "concentration [µM]": 30}

---

assay: Oral bioavailability in rat at 4.0 mg/kg; format: ADME, organism-based; details: in vivo
property-name: bioavailability (%)

{"structure-smiles-string": "Nc1ccc(-c2cccs2)cc1NC(=O)c1ccc(N2CCC3(CCNC3)CC2)nc1", "unit-of-measurement": "%", "data-value": 23}
{"structure-smiles-string": "C[C@H]1CN(c2ccc(C(=O)Nc3ccccc3N)cn2)CCN1C(=O)OCc1ccccc1", "unit-of-measurement": "%", "data-value": 37}
{"structure-smiles-string": "Nc1ccc(-c2cccs2)cc1NC(=O)c1ccc(N2CCC3(CC2)COC(=O)N3)nc1", "unit-of-measurement": "%", "data-value": 13}

---

test: Plasma concentration in human HCT116 cells xenografted CD1 mouse at 300 mg/kg, po after 6 hrs; format: ADME, organism-based, HCT-116; parameters: dose 300 mg/kg, route oral

{"structure-smiles-string": "Nc1ccc(-c2cccs2)cc1NC(=O)c1ccc(N2CCC3(CCNC3)CC2)nc1", "concentration at 6 h, µM": 21}

---

assay: Plasma concentration in human HCT116 cells xenografted CD1 mouse at 15 mg/kg, ip after 24 hrs; type: ADME, organism-based, HCT-116; parameters: dose 15 mg/kg, route intraperitoneal

{"structure-smiles-string": "Nc1ccc(-c2cccs2)cc1NC(=O)c1ccc(N2CCC3(CCNC3)CC2)nc1", "unit-of-measurement": "nM", "concentration at 24 h": 320}
